This section presents molecules with their documented IC50 values.
biological target: AVP-V1 sites (Rattus norvegicus, UniProt P30560); construct: crude membrane preparation of male rat liver (AVP-V1 sites); from tissue; host or cells: male rat liver, crude membranes; assay: [^3 H]AVP binding to crude membrane preparation of male rat liver (AVP-V1 sites); conditions: Receptor Binding Results IC50 (nM) [^3 H]-AVP-V1
Sequence (P30560 whole entry): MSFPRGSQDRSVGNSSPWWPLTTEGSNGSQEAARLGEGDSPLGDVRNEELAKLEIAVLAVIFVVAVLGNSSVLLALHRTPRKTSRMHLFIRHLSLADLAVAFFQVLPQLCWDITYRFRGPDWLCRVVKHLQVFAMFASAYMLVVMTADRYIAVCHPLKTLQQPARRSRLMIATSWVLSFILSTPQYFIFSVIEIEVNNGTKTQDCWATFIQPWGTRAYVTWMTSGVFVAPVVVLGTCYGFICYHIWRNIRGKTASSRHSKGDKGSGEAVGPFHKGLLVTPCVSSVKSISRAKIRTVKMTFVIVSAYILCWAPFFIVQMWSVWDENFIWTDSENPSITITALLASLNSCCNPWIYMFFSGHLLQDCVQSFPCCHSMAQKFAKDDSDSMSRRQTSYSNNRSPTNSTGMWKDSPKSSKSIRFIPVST
Numbered stars: 1 amine (or outer) side, 2 acyl side, 3 side chain; on linkers, the order of the positions; unused ones are H or OH. Square brackets hold non-standard residues; d marks the D form. Peptide text beside a SMILES is read from it. * marks the point of attachment. dPip(4-aza,4-Cbz) = O=C(O)[C@H]1CN(C(=O)OCc2ccccc2)CCN1; X2 = O=C(OCc1ccccc1)N1CCN([*:1])[C@H](C(=O)[*:2])C1; X1 = O=C([C@H]1C=CCCN1[*:1])[*:2]; dNMeF = CN[C@H](Cc1ccccc1)C(=O)O; dPip = O=C(O)[C@H]1CCCCN1; Orn = NCCC[C@H](N)C(=O)O; Cbz = O=C(OCc1ccccc1)*; Dap = NC[C@H](N)C(=O)O
ATTRIBUTE MEASURED: IC50

molecule="CC[C@H](C)[C@@H]1NC(=O)[C@@H](Cc2c[nH]c3ccccc23)NC(=O)[C@@H]2CCCN2C(=O)[C@@H](Cc2ccccc2)NC(=O)[C@H]2CN(C(=O)OCc3ccccc3)CCN2C(=O)[C@H]2CCCCN2C1=O [Example 90] (cyclo(I[dPip][dPip(4-aza,4-Cbz)][dF]P[dW]))" observed="> 10000 nM"
molecule="CC[C@H](C)[C@@H]1NC(=O)[C@@H](Cc2c[nH]c3ccccc23)NC(=O)[C@@H]2CCCN2C(=O)[C@@H](Cc2c[nH]cn2)NC(=O)[C@H](CCCCNC(=O)OCc2ccccc2)NC(=O)[C@H]2CCCCN2C1=O [Example 38] (cyclo(I[dPip]K(Cbz)[dH]P[dW]))" observed="> 1000 nM"
molecule="CC[C@H](C)[C@@H]1NC(=O)[C@@H](Cc2ccccc2)NC(=O)[C@@H]2CCCN2C(=O)[C@@H](Cc2ccccc2)N(C)C(=O)[C@H]2C=CCCN2C(=O)[C@H]2CCCCN2C1=O [Example 22] (cyclo(I[dPip][X1][dNMeF]P[dF]))" observed="> 10000 nM"
molecule="CC[C@H](C)[C@@H]1NC(=O)[C@@H](Cc2ccccc2)NC(=O)[C@@H]2CCCN2C(=O)[C@@H](Cc2ccccc2)N(C)C(=O)[C@H](CN)NC(=O)[C@H]2CCCCN2C1=O [Example 121] (cyclo([Dap][dNMeF]P[dF]I[dPip]))" observed="10000 nM"
molecule="CC[C@H](C)[C@@H]1NC(=O)[C@@H](Cc2c[nH]c3ccccc23)NC(=O)[C@@H]2CCCN2C(=O)[C@@H](Cc2ccccc2)NC(=O)[C@@H]2CN(C(=O)OCc3ccccc3)CCN2C(=O)[C@H]2CCCCN2C1=O [Example 89] (cyclo(I[dPip][X2][dF]P[dW]))" observed="> 10000 nM"
molecule="CC[C@H](C)[C@@H]1NC(=O)[C@@H](Cc2ccccc2)NC(=O)[C@@H]2CCCN2C(=O)[C@@H](Cc2c[nH]cn2)NC(=O)[C@H](CCCCNC(=O)OCc2ccccc2)NC(=O)[C@H]2CCCCN2C1=O [Example 37] (cyclo(I[dPip]K(Cbz)[dH]P[dF]))" observed="10000 nM"
molecule="CC[C@H](C)[C@@H]1NC(=O)[C@@H](Cc2c[nH]c3ccccc23)NC(=O)[C@@H]2CCCN2C(=O)[C@@H](Cc2ccccc2)N(C)C(=O)[C@H](CCCN)NC(=O)[C@H]2CCCCN2C1=O [Example 40] (cyclo(I[dPip][Orn][dNMeF]P[dW]))" observed="> 1000 nM"
molecule="CC[C@H](C)[C@@H]1NC(=O)[C@@H](Cc2ccc(O)cc2)NC(=O)[C@@H]2CCCN2C(=O)[C@@H](Cc2ccccc2)N(C)C(=O)[C@H](CCCCN)NC(=O)[C@H]2CCCCN2C1=O [Example 147] (cyclo(I[dPip]K[dNMeF]P[dY]))" observed="10000 nM"
